target: BRAF G466V (Homo sapiens, UniProt P15056, G466V); construct: Horizon Discovery (HCT-116 BRAF−/− cells); host or cells: HCT-116 BRAF−/− cells, clone 8, lentiviral transduction; assay: BRAF HiBiT degradation assay, C-terminal HiBiT-tagged BRAF G466V overexpressed in HCT-116 BRAF−/− cells (clone 8), Nano-Glo HiBiT Lytic assay; type: cell-based; settings: HCT-116; BRAF G466V; percentage protein degraded at maximal compound effect relative to DMSO
Sequence (P15056 whole entry G466V): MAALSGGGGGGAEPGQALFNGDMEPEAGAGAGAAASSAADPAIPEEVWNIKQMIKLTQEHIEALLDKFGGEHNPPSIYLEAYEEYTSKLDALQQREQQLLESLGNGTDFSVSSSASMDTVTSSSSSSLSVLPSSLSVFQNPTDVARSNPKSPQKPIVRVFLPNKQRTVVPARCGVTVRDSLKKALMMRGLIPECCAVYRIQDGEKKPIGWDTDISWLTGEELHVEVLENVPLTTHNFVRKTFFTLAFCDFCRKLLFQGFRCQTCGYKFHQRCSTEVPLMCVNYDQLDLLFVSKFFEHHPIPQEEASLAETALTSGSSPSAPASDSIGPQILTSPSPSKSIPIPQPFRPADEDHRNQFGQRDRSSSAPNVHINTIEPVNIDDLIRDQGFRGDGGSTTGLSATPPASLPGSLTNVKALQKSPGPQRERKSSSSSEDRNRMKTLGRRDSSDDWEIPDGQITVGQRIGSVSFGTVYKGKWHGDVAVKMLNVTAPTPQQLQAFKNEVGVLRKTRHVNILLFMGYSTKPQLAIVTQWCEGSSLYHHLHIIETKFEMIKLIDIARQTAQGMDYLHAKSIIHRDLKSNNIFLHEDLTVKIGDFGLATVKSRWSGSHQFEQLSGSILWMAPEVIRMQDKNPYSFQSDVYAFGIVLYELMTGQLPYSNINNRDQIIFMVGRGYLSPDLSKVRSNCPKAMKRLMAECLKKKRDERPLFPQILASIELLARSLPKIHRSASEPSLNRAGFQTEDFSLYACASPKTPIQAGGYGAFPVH
REPORTED_METRIC: Dmax

[[record]]
compound = "CCCS(=O)(=O)Nc1cccc(-c2nc(C(C)(C)C)sc2-c2ccnc(Nc3cnn(CC4CCN(C(=O)CN5CCC(c6ccc(NC7CCC(=O)NC7=O)cc6)CC5)CC4)c3)n2)c1F (racemic) [Compound 116]"
system_tested = "BRAF G466V (Homo sapiens, UniProt P15056, G466V)"
recorded_measurement = "30 to 70%"

[[record]]
compound = "CCCS(=O)(=O)Nc1cccc(-c2nc(C(C)(C)C3CCN(C(=O)C4CN(C5CCN(c6ccc7c(c6)C(=O)N(C6CCC(=O)NC6=O)C7=O)CC5)C4)CC3)sc2-c2ccnc(N)n2)c1F (racemic) [Compound 243]"
system_tested = "BRAF G466V (Homo sapiens, UniProt P15056, G466V)"
recorded_measurement = "< 30%"

[[record]]
compound = "CCCS(=O)(=O)Nc1cccc(-c2cn(-c3ccc(C4CCN(CC5CCN(c6ccc(C7CCC(=O)NC7=O)cc6F)CC5)CC4)cc3)nc2-c2ccncc2)c1F (racemic) [Compound 22]"
system_tested = "BRAF G466V (Homo sapiens, UniProt P15056, G466V)"
recorded_measurement = "30 to 70%"


* * *

Target: BRAF D594G (Homo sapiens, UniProt P15056, D594G)
Construct: Horizon Discovery (HCT-116 BRAF−/− cells); host or cells: HCT-116 BRAF−/− cells, clone 63, lentiviral transduction
Sequence (P15056 whole entry D594G): as the sequence (P15056 whole entry G466V) above, with V466G, D594G counted along it
Test: BRAF HiBiT degradation assay, C-terminal HiBiT-tagged BRAF D594G overexpressed in HCT-116 BRAF−/− cells (clone 63), Nano-Glo HiBiT Lytic assay
Type: cell-based
Conditions: BRAF D594G; DC50 at 50%: fitted conc. at Y=50
Description: An A375 cell line expressing a homozygous V600E mutation was purchased from ATCC (Manassas, VA, USA). […] HiBiT signal was measured by a Nano-Glo HiBiT Lytic assay (Promega cat. no. N3050). […] Luminesce units (LU) were read on an EnVision plate reader 2105 (Perkin Elmer). Percent protein remaining and viability remaining per sample were calculated as follows: […]
This section presents molecules with their documented DC50 values.
REPORTED_METRIC: DC50

[[record]]
molecule = "CCCS(=O)(=O)Nc1cccc(-c2nc(C(C)(C)C)sc2-c2ccnc(Nc3cnn(CC4CCN(C(=O)C[C@@H]5CCN(c6ccc(C7CCC(=O)NC7=O)cc6)C5)CC4)c3)n2)c1F (mixture of isomers) [Compound 112]"
recorded_measurement = "> 500 nM"

[[record]]
molecule = "CCCS(=O)(=O)Nc1cccc(-c2cn(-c3ccc(C4CCN(CC5CCN(c6ccc([C@@H]7CCC(=O)NC7=O)cc6)CC5)CC4)cc3)nc2-c2ccncc2)c1F [Compound 15]"
recorded_measurement = "> 500 nM"

[[record]]
molecule = "CCN(C)S(=O)(=O)Nc1cccc(-c2nc(C)sc2-c2ccnc(Nc3ccc(N4CCN(C(=O)C5CCN(c6ccc(C7CCC(=O)NC7=O)cn6)CC5)CC4)cn3)n2)c1F (racemic) [Compound 40]"
recorded_measurement = "> 500 nM"


* * *

target: BRAF G466V (Homo sapiens, UniProt P15056, G466V); construct: Horizon Discovery (HCT-116 BRAF−/− cells); host or cells: HCT-116 BRAF−/− cells, clone 8, lentiviral transduction; assay: BRAF HiBiT degradation assay, C-terminal HiBiT-tagged BRAF G466V overexpressed in HCT-116 BRAF−/− cells (clone 8), Nano-Glo HiBiT Lytic assay; format: cell-based; details: BRAF G466V; DC50 at 50%: fitted conc. at Y=50
REPORTED_METRIC: DC50

[[record]]
molecule = "CCCS(=O)(=O)Nc1cccc(-c2nc(C(C)(C)C)sc2-c2ccnc(Nc3ccc(N4CCN(CC5CCN(c6ccc([C@@H]7CCC(=O)NC7=O)cc6)CC5)CC4)cc3)n2)c1F"
system_tested = "BRAF G466V (Homo sapiens, UniProt P15056, G466V)"
reported_metric = "DC50"
recorded_measurement = "50 to 500 nM"

[[record]]
molecule = "CCCS(=O)(=O)Nc1cccc(-c2nc(C(C)(C)C)sc2-c2ccnc(Nc3ccc(N4CCN(C(=O)C5CCN(c6ccc(C7CCC(=O)NC7=O)cc6)CC5)CC4)c(F)c3)n2)c1F (racemic)"
system_tested = "BRAF G466V (Homo sapiens, UniProt P15056, G466V)"
reported_metric = "DC50"
recorded_measurement = "> 500 nM"

[[record]]
molecule = "CCCS(=O)(=O)Nc1cccc(-c2nc(C(C)(C)C)sc2-c2ccnc(Nc3cnn(CC4CCN(C(=O)C[C@@H]5CCN(c6ccc(C7CCC(=O)NC7=O)cc6)C5)CC4)c3)n2)c1F (mixture of isomers)"
system_tested = "BRAF G466V (Homo sapiens, UniProt P15056, G466V)"
reported_metric = "DC50"
recorded_measurement = "> 500 nM"

[[record]]
molecule = "CCCS(=O)(=O)Nc1cccc(-c2nc(C(C)(C)C)sc2-c2ccnc(Nc3cnn(C4CCN(C(=O)CN5CCC(c6ccc(NC7CCC(=O)NC7=O)cc6)CC5)CC4)c3)n2)c1F (racemic)"
system_tested = "BRAF G466V (Homo sapiens, UniProt P15056, G466V)"
reported_metric = "DC50"
recorded_measurement = "> 500 nM"

[[record]]
molecule = "CCCS(=O)(=O)Nc1cccc(-c2nc(C3CCN(C(=O)C4CCN(C(=O)C5(C)CCN(c6ccc(C7CCC(=O)NC7=O)cn6)CC5)CC4)CC3)sc2-c2ccnc(N)n2)c1F (racemic)"
system_tested = "BRAF G466V (Homo sapiens, UniProt P15056, G466V)"
reported_metric = "DC50"
recorded_measurement = "10 to 50 nM"

[[record]]
molecule = "CCCS(=O)(=O)Nc1cccc(-c2nc(-c3ccc(C4CCN(C(=O)CC5CCN(c6ccc(C7CCC(=O)NC7=O)cn6)CC5)CC4)cc3)sc2-c2ccnc(N)n2)c1F (racemic)"
system_tested = "BRAF G466V (Homo sapiens, UniProt P15056, G466V)"
reported_metric = "DC50"
recorded_measurement = "> 500 nM"

[[record]]
molecule = "CCCS(=O)(=O)Nc1cccc(-c2nc(C(C)(C)C)sc2-c2ccnc(NC3CC4(C3)CN(CC3CCN(c5ccc(C(=O)NC6CCC(=O)NC6=O)cc5)CC3)C4)n2)c1F (racemic)"
system_tested = "BRAF G466V (Homo sapiens, UniProt P15056, G466V)"
reported_metric = "DC50"
recorded_measurement = "> 500 nM"

[[record]]
molecule = "CCCS(=O)(=O)Nc1cccc(-c2nc(C(C)(C)C)sc2-c2ccnc(Nc3cccc(OC4CCN(C(=O)CN5CCC(c6ccc(NC7CCC(=O)NC7=O)cc6)CC5)CC4)c3)n2)c1F (racemic)"
system_tested = "BRAF G466V (Homo sapiens, UniProt P15056, G466V)"
reported_metric = "DC50"
recorded_measurement = "> 500 nM"

[[record]]
molecule = "CCCS(=O)(=O)Nc1cccc(-c2cn(-c3ccc(N4CCN(CC5CCN(c6ccc(C7CCC(=O)NC7=O)cn6)CC5)CC4)nc3)nc2-c2ccncc2)c1F (racemic)"
system_tested = "BRAF G466V (Homo sapiens, UniProt P15056, G466V)"
reported_metric = "DC50"
recorded_measurement = "10 to 50 nM"

[[record]]
molecule = "CCCS(=O)(=O)Nc1cccc(-c2nc(C(C)(C)C)sc2-c2ccnc(Nc3ccc(N4CCN(CC5CCN(c6ccc([C@H]7CCC(=O)NC7=O)cc6)CC5)CC4)cc3)n2)c1F"
system_tested = "BRAF G466V (Homo sapiens, UniProt P15056, G466V)"
reported_metric = "DC50"
recorded_measurement = "< 10 nM"


* * *

target: BRAF G466V (Homo sapiens, UniProt P15056, G466V); construct: Horizon Discovery (HCT-116 BRAF−/− cells); host or cells: HCT-116 BRAF−/− cells, clone 8, lentiviral transduction; test: BRAF HiBiT degradation assay, C-terminal HiBiT-tagged BRAF G466V overexpressed in HCT-116 BRAF−/− cells (clone 8), Nano-Glo HiBiT Lytic assay; format: cell-based; details: BRAF G466V (Class 3), HCT-116 BRAF−/− cells; DC50 at 50% degradation
# DC50 values compiled below
REPORTED_METRIC: DC50

[[record]]
compound = "CCN(C)S(=O)(=O)Nc1cc(Cl)cc(-c2cn(-c3ccc(N4CCN(CC5CCN(c6ccc([C@H]7CCC(=O)NC7=O)cc6)CC5)CC4)cn3)nc2-c2ccncc2)c1F [Compound 310]"
recorded_measurement = "10 to 50 nM"

[[record]]
compound = "CCC(C)S(=O)(=O)Nc1cc(Cl)cc(-c2cn(-c3ccc(N4CCN(CC5CCN(c6ccc([C@@H]7CCC(=O)NC7=O)cn6)CC5)CC4)cc3)nc2-c2ccncc2)c1F (mixture of isomers) [Compound 329]"
recorded_measurement = "< 10 nM"

[[record]]
compound = "O=C1CCN(c2ccc(N3CCC(CN4CCN(c5ccc(-n6cc(-c7cc(Cl)cc(NS(=O)(=O)N8CCCC8)c7F)c(-c7ccncc7)n6)c(F)c5)CC4)CC3)nc2)C(=O)N1 [Compound 370]"
recorded_measurement = "< 10 nM"

[[record]]
compound = "CCC(C)S(=O)(=O)Nc1cc(Cl)cc(-c2cn(-c3ccc(N4CCN(CC5CCN(c6ccc([C@H]7CCC(=O)NC7=O)cc6)CC5)CC4)cc3)nc2-c2ccncc2)c1F (mixture of isomers) [Compound 330]"
recorded_measurement = "< 10 nM"

[[record]]
compound = "CCCS(=O)(=O)Nc1cccc(-c2nc(C3CCC4(CC3)CN(C(=O)CC3CCN(C5CCN(c6ccc7c(c6)C(=O)N(C6CCC(=O)NC6=O)C7=O)CC5)CC3)C4)sc2-c2ccnc(N)n2)c1F (racemic) [Compound 247]"
recorded_measurement = "> 500 nM"

